Reference source: paper PMC7700248

Recorded measurements of survival at 30 µM, one per entry
system: Artemia salina; experiment: Brine shrimp toxicity (lethality) assay; format: in vivo; conditions: Artemia salina, 24 h, read-out: Percentage of Survival of Artemia salina after 24 h
Write the number in % without appending the unit.

INSERT INTO assay_data (compound, measuredendpoint, val) VALUES
  ('COC(CCC(C)C1OC23CC(OC(=O)CC(C(C)O)OC(=O)CC4(CC2(C)CC4(C)O)O3)C1C)c1cccc(O)c1 (stereo not drawn)', 'survival at 30 µM', 91.8),
  ('COC(CCC(C)C1OC2(C=CC1C)OC(C)(C(=O)CC(=O)OC1CC(=O)OC1C)CC2(C)C)c1cccc(O)c1 (stereo not drawn)', 'survival at 30 µM', 95.5),
  ('COC(CCC(C)C1OC2(C=CC1C)CC(=O)C(C)CC2(C)C)c1cccc(O)c1 (stereo not drawn)', 'survival at 30 µM', 85.5),
  ('COC(CCC(C)C1OC23CC(OC(=O)CC(C(C)O)OC(=O)CC(OC)(O2)C(C)CC3(C)C)C1C)c1cccc(O)c1 (stereo not drawn)', 'survival at 30 µM', 0),
  ('COC(CCC(C)C1OC(=O)C(C)(C)CC(C)=C(CC(=O)OC2CC(=O)OC2C)C(=O)CC1C)c1cccc(O)c1 (stereo not drawn)', 'survival at 30 µM', 94.9);

I'd like to know its survival at 30 µM. The compound in question is COC(CCC(C)C1OC23CC(OC(=O)CC(C(C)O)OC(=O)CC(=C(C)CC2(C)C)O3)C1C)c1cccc(O)c1 (stereo not drawn) [Anhydro DAT, anhydrodebromoaplysiatoxin]
0
